Catalogue of ELISA_avg values
Molecular target: T1, recombinant human CD123-Fc (human, UniProt P26951 19-305)
T1 construct: not shown: Fc part of CD123-Fc
T1 sequence: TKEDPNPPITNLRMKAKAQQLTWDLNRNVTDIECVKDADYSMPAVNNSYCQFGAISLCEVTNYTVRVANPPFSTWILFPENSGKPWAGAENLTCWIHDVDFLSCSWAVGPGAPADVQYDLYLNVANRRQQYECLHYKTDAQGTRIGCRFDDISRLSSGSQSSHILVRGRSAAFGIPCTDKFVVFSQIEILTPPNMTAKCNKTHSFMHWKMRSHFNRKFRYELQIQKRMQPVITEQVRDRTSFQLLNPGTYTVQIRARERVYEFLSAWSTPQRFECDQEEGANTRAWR
Assay: phage ELISA, A450 target/A450 IgG1-Fc

// solved cases for ELISA_avg follow
| BINDER | ELISA_avg |
| --- | --- |
| SEQ ID NO 679 (designed binder) MGSWTEFDRRLDAIWDRLFALGGSEAELAAFEKEIAAFESELQAYKGKGNPEVEWLREEAADIRDYLQAYRHN | 9.2 ratio |
| SEQ ID NO 657 (designed binder) MGSWDEFHQRLAAIGDRLWALGGSEAELAYFEWEIATFEWDLQVYKGKGNPEVEALYFEATAIDEELMAYRHN | 3.7 ratio |
| SEQ ID NO 671 (designed binder) MGSWDEFSERLDAIWGRLEALGGSEAELATFEFHIAEFEHELQYYKGKGNPEVEALQGEAAAIINELYAYRHN | 3.2 ratio |
| SEQ ID NO 734 (designed binder) MGSWEEFTDRLWAIEDRLYALGGSEAELAAFEKEIAAFESELQAYKGKGNPEVEWLRDEAAFIRKSLQAYRHN | 8.9 ratio |
| SEQ ID NO 675 (designed binder) MGSWFEFEWRLDAIENRLNALGGSEAELAWFEYHIAAFEDSLQHYKGKGNPEVEALEWEAHAIQSELQAYRHN | 3.3 ratio |
| SEQ ID NO 634 (designed binder) MGSWHEFIWRLDAIEERLWALGGSEAELAWFETEIATFEAQLQDYKGKGNPEVEALEWEAIAIAWELDAYRHN | 3.3 ratio |

For the binder SEQ ID NO 655 (designed binder) MGSWEEFDERLWAISDRLWALGGSEAELAYFEGEIAYFEQNLQTYKGKGNPEVEALQTEALAIDTELWAYRHN , give its measured ELISA_avg value.
6.5 ratio
